measuredTarget: GABA-A receptor; anion channel
testProtocol: Displacement of [3H]diazepam from GABA-A receptor in rat synaptosomal membranes
pIC50: −log10 of the molar value.
metric: pIC50

                                   molecule  metric  testresult
0  CN1CCN2c3ccc(Cl)cc3C(c3ccc(Cl)cc3)=NCC2C1 (configuration not stated)   pIC50      < 4.00
1  CN1CCN2c3ccc(Cl)cc3C(Cc3ccccc3)=NCC2C1 (configuration not stated)   pIC50      < 4.00
2  CC1=NCC2CN(C)CCN2c2ccc(Cl)cc21 (configuration not stated)   pIC50      < 4.00
3  CN1CCN2c3ccc(Cl)c(-c4ccccc4)c3CNCC2C1 (configuration not stated)   pIC50      < 4.00
4  CC(=O)N1Cc2c(ccc(Cl)c2-c2ccccc2)N2CCN(C)CC2C1 (configuration not stated)   pIC50      < 4.00
5  CN1CCN2c3ccc(Cl)cc3C(c3ccccc3)=NCC2C1 (configuration not stated)   pIC50        5.05
6  CN1CCN2c3ccc(Cl)cc3C(c3ccccc3Cl)=NCC2C1 (configuration not stated)   pIC50        6.10

====

Species: Rattus norvegicus
testProtocol: Ability to inhibit the uptake of norepinephrine (NE) by crude synaptosomes from rat whole brain
Assay type: functional
pIC50: −log10 of the molar value.
metric: pIC50

>>> df
                                   compound  testresult
0  CN1CCN2c3ccccc3Cc3ccccc3C2C1 (centres undefined)        4.44
1         CN(C)CCCN1c2ccccc2CCc2ccc(Cl)cc21        5.02
2  CN1CCN2c3ccc(Cl)cc3C(c3ccccc3Cl)=NCC2C1 (centres undefined)        4.52
3                CNCCCN1c2ccccc2CCc2ccccc21        7.10

====

IC50 by entry:
testProtocol: Compound was evaluated for in vitro inhibition of histamine activated adenylate cyclase in guinea pig cerebral cortex
Type: functional, tissue-based, Cavia porcellus
metric: IC50 (µM)

                                   molecule  ltgteq  testresult
0                CNCCCN1c2ccccc2CCc2ccccc21       =        10.5
1  CN1CCN2c3ccccc3Cc3ccccc3C2C1 (centres undefined)       =        0.19
2  CN1CCN2c3ccc(Cl)cc3C(c3ccc(Cl)cc3)=NCC2C1 (centres undefined)       >          50
3         CN(C)CCCN1c2ccccc2CCc2ccc(Cl)cc21       =         4.4
4  CC1=NCC2CN(C)CCN2c2ccc(Cl)cc21 (centres undefined)       =           5
5  CN1CCN2c3ccc(Cl)cc3C(c3ccccc3)=NCC2C1 (centres undefined)       =           9
6  CN1CCN2c3ccc(Cl)cc3C(Cc3ccccc3)=NCC2C1 (centres undefined)       >          50
7  CN1CCN2c3ccc(Cl)c(-c4ccccc4)c3CNCC2C1 (centres undefined)       >          50
8  CN1CCN2c3ccc(Cl)cc3C(c3ccccc3Cl)=NCC2C1 (centres undefined)       =          30
